Each entry below carries its recorded IC50.
- assay system: human LPA1 (Homo sapiens)
- Construct: the full-length cDNA for human LPA1 was obtained by PCR of the reverse transcription reaction
- Sequence (Q92633 whole entry): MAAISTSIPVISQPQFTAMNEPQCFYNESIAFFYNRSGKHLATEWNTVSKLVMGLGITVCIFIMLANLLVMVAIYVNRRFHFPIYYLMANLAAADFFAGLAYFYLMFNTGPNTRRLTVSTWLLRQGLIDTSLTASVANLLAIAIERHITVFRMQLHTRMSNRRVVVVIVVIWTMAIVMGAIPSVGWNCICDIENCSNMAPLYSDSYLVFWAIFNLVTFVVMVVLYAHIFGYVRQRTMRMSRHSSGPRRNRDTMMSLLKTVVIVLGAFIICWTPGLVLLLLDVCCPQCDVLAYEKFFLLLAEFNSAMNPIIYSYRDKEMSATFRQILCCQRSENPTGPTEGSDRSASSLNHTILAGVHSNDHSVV
- measurement protocol: LPA1 calcium flux assay (HLPA1 Ca Flux)
- test settings: CHO cells stably expressing human LPA1, stimulated with 10 nM LPA

Example entries and their recorded answers appear below.
| compound | IC50 |
| --- | --- |
| Cc1noc(-c2ccc(-c3ccc(C4(C(=O)O)CC4)cc3)cc2)c1COCCc1ccccc1 [Compound 8] | < 300 nM |
| Cc1noc(-c2ccc(-c3ccc(C4(C(=O)O)CC4)cc3)cc2)c1CC(C)(O)CCc1ccccc1 (centres unmarked) [Compound 25] | < 300 nM |
| Cc1noc(-c2ccc(-c3ccc(C4(C(=O)O)CC4)cc3)cc2)c1NC(C)CCc1ccc(Cl)cc1 (centres unmarked) [Compound 54] | < 300 nM |
| Cc1noc(-c2ccc(-c3ccc(C4(C(=O)O)CC4)cc3)cc2)c1COCC(C)c1ccccc1 (centres unmarked) [Compound 11] | < 300 nM |
| Cc1noc(-c2ccc(-c3ccc(C4(C(=O)O)CC4)cc3)cc2)c1CNCC(O)c1ccccc1 (centres unmarked) [Compound 12] | 1000 to 50000 nM |
| Cc1noc(-c2ccc(-c3ccc(C4(C(=O)O)CC4)cc3)cc2)c1C(O)CCCc1cccc(C(F)(F)F)c1 (centres unmarked) [Compound 36] | < 300 nM |
| Cc1noc(-c2ccc(-c3ccc(C4(C(=O)O)CC4)cc3)cc2)c1NC(C)CCc1ccccc1Cl (centres unmarked) [Compound 53] | < 300 nM |
| Cc1cccc(CCCC(O)c2c(C)noc2-c2ccc(-c3ccc(C4(C(=O)O)CC4)cc3)cc2)c1 (centres unmarked) [Compound 37] | < 300 nM |
| Cc1noc(-c2ccc(-c3ccc(C4(C(=O)O)CC4)cc3)cc2)c1CC(O)CNCc1ccccc1 (centres unmarked) [Compound 27] | 1000 to 50000 nM |
| Cc1noc(-c2ccc(-c3ccc(C4(C(=O)NS(=O)(=O)C5CC5)CC4)cc3)cc2)c1C(O)CCCc1ccccc1 (centres unmarked) [Compound 79] | < 300 nM |

Query IC50 on human LPA1 (Homo sapiens) for Cc1noc(-c2ccc(-c3ccc(C4(C(=O)O)CC4)cc3)cc2)c1CCNCc1ccccc1 [Compound 28]
300 to 1000 nM

// next record Cc1noc(-c2ccc(-c3ccc(C4(C(=O)NS(C)(=O)=O)CC4)cc3)cc2)c1[C@H](O)CSCc1ccccc1 [Compound 77]
< 300 nM

// next record Cc1noc(-c2ccc(-c3ccc(C4(C(=O)O)CC4)cc3)cc2)c1[C@H](O)CO[C@H](C)c1ccccc1 [Compound 49]
< 300 nM

// next record Cc1noc(-c2ccc(-c3ccc(C4(C(=O)O)CC4)cc3)cc2)c1COCC(C)(O)c1ccccc1 (centres unmarked) [Compound 19]
1000 to 50000 nM
